The measurements presented in this section are drawn from PubChem BioAssay (NCI).

# Tested on: SN12C renal
# TEST_DESCRIPTION: NCI tumour cell line growth inhibition, 48 h
QUANTITY_MEASURED: TGI

> print(dat)
                     structure.smiles.string  value.reported
 1  CC(=O)c1ccc(-c2oc(-c3ccccc3)cc2-c2ccc3c(c2)OCO3)s1        > 100 µM
 2  CCOC(=O)Cn1c(=O)c2nc(SC)sc2n(-c2ccc(C)cc2)c1=S        > 100 µM
 3  COc1ccc(C(=O)/C=C/c2cc3ccccc3[nH]c2=O)cc1        > 100 µM
 4  C#CCCCC(=C)C[C@H](OCc1ccccc1)[C@H]1OC(=O)[C@@H]1C        > 100 µM
 5  Cc1cc(Cl)ccc1Nc1sc(C(=O)c2cc3cc(Cl)ccc3o2)c(N)c1C#N        > 100 µM
 6  CC1=C(C)SC(=C2Sc3c(n(C)c(=O)[nH]c3=O)S2)S1        > 100 µM
 7  Cc1ccc(S(=O)(=O)Nn2c(-c3ccccc3)c(C#N)c(-c3ccc(Cl)cc3)c(C#N)c2=O)cc1        > 100 µM
 8  CC(=O)O[C@H](C[C@H](C(C)C)N(C)C(=O)[C@@H](NC(=O)[C@H]1CCCCN1C)C(C)C)c1nc(C(=O)N[C@@H](Cc2ccccc2)C[C@H](C)C(=O)O)c(C)s1         > 25 µM
 9  O=C1C(=O)c2cc([N+](=O)[O-])ccc2-c2ccccc21         3.05 µM
10  CS(=O)(=O)c1ccc(N/N=C/c2c(-c3ccc(S(C)(=O)=O)cc3)[nH]c3ccc(F)cc23)cc1         > 50 µM

====

# Tested on: K-562 leukemia
# TEST_DESCRIPTION: NCI tumour cell line growth inhibition, 48 h; in the data active = GI50 below about 0.43 µM; inactive = the rest
Labels: t (active), f (inactive)

STRUCTURE_SMILES_STRING	TARGET_DESC	LABEL_CLASS
CCCCCCN(CCCCCC)C(=N)c1ccnc2ccccc12	K-562 leukemia	f
Cc1ccc(-c2csc(N(C(=O)N3CCN(c4cc5c(cc4F)c(=O)c(C(=O)O)cn5C4CC4)CC3)c3ccccc3)n2)cc1	K-562 leukemia	t
CN1CCN(C(=O)c2ccc(NC(=O)Nc3ccc(N(C)c4ccnc(Nc5ccc(CS(C)(=O)=O)cc5)n4)cc3)cc2)CC1	K-562 leukemia	f
COc1cc2c(c(OC)c1OC)-c1ccc([O-])c(=O)cc1[C@@H](NC(C)=O)CC2.COc1cc2c(c(OC)c1OC)-c1ccc([O-])c(=O)cc1[C@@H](NC(C)=O)CC2.[Cu+2]	K-562 leukemia	f

====

# Test system: NCI-H23 lung
# TEST_DESCRIPTION: NCI tumour cell line growth inhibition, 48 h
Listing of entries alongside the reported TGI.
QUANTITY_MEASURED: TGI

> print(dat)
                                   compound  quantity.measured  value.reported
1  CC1=CC(=O)C(C)(C2=NC(C)(C)CO2)c2ccccc21 (centres undefined)                TGI        > 100 µM
2  CC(=O)CC(=O)N(CCN(C(=O)CC(C)=O)c1ccccc1)c1ccccc1                TGI        > 100 µM
3      O=C(O)c1ccc(Nc2ccnc3cc(Cl)ccc23)cc1O                TGI        > 100 µM
4  CCc1ccc(C2=C/C(=C/c3ccc(Cl)cc3)C(=O)N2CCc2ccc(S(N)(=O)=O)cc2)cc1                TGI         7.46 µM
5  Cc1cc(N(CCOS(C)(=O)=O)CCOS(C)(=O)=O)ccc1C=Nc1ccc(-c2csc(-c3ccccc3)n2)c(Cl)c1                TGI           29 µM
6  O=C(NNC(=S)Nc1ccccc1)C12CC3CC(CC(C3)C1)C2                TGI        > 100 µM
7  C#CCCCC(=C)C[C@H](OCc1ccccc1)[C@H]1OC(=O)[C@@H]1C                TGI        > 100 µM
8  COc1cc(N2CCC(N3CCN(C)CC3)CC2)ccc1Nc1ncc(Cl)c(Nc2ccccc2P(C)(C)=O)n1                TGI        > 100 µM
9  C/C(=C\c1ccn(-c2ccc(N)c(C(F)(F)F)c2)n1)[C@@H]1C[C@@H]2O[C@]2(C)CCC[C@H](C)[C@H](O)[C@@H](C)C(=O)C(C)(C)[C@@H](O)CC(=O)O1                TGI       > 32.5 µM

====

# Tested on: RXF 393 renal
# TEST_DESCRIPTION: NCI tumour cell line growth inhibition, 48 h
Reported TGI is given for each of the following molecules.
QUANTITY_MEASURED: TGI

> print(dat)
                    structure.smiles.string    target.desc  value.reported
1  Cc1nc(Nc2nnc(-c3cc([N+](=O)[O-])cc([N+](=O)[O-])c3C)o2)sc1C(=O)CC(=O)Cc1nc2ccc(Cl)cc2[nH]c1=O  RXF 393 renal        > 100 µM
2      O=C(O)c1ccc(Nc2ccnc3cc(Cl)ccc23)cc1O  RXF 393 renal        > 100 µM
3          CC1=CC2=C(OCO1)C(=O)c1ccccc1C2=O  RXF 393 renal         12.5 µM
4  CC(C)(C)CN1[C@@H]2CCCC[C@H]2N(CC(C)(C)C)P1(=O)Cc1ccccc1  RXF 393 renal         24.1 µM

====

# System: IGROV1 ovarian
# TEST_DESCRIPTION: NCI tumour cell line growth inhibition, 48 h
QUANTITY_MEASURED: TGI (µM)

> print(dat)
                                   compound  unit.of.measure  limit.operator  value.reported
1  COC1Cc2c(C)c(OC(C)=O)c3cccnc3c2O1 (centres undefined)               µM               =            37.3
2  COC(=O)c1cccc(NC(=O)Nc2ccc3oc(=O)c4ccccc4c3c2)c1               µM               >             100
3  CC(=O)[O-].CC(=O)[O-].[Mn+2].c1ccc(/C(=N\Nc2ccccn2)c2ccccn2)cc1               µM               =            3.59
4  CC(=O)[CH-]C(=O)c1ccccc1.CC(=O)[CH-]C(=O)c1ccccc1.O=C([O-])C[O-].O=C([O-])C[O-].[Ti+4]               µM               >             100

====

Recorded TGI, one value per entry.
# System: SNB-19 CNS
# TEST_DESCRIPTION: NCI tumour cell line growth inhibition, 48 h
QUANTITY_MEASURED: TGI (µM)

> print(dat)
                                   molecule  limit.operator  value.reported
1  O=C1c2ccccc2C(=O)c2c(OCC3CO3)ccc(OCC3CO3)c21 (stereo not given)               =            27.2
2  CCN1C(=O)N(CC)C2C1NN=c1s/c(=C3\C(=O)N(CCC(C)C)c4ccccc43)c(=O)n12 (stereo not given)               =            11.5
3                     C=C(C)C(=O)NC(N)=NC#N               =             330
4  CCOC(=O)c1sc2nc(SC)nc(Nc3ccc4c(c3)OCCCO4)c2c1N               >             100
5  CCOC(=O)[C@H](CSSc1ncnc2cc[nH]c12)NC(=O)[C@@H](C)c1ccc2cc(OC)ccc2c1               >             100

====

# Test system: PC-3 prostate
# TEST_DESCRIPTION: NCI tumour cell line growth inhibition, 48 h
QUANTITY_MEASURED: TGI

MOLECULE	QUANTITY_MEASURED	VALUE_REPORTED
CON(C)C(=O)C(Cc1ccccc1)NC(=O)OC(C)(C)C (stereo unspecified)	TGI	> 100 µM
COc1ccc(C(=S)c2cc(OC)c(OC)c(OC)c2)cc1OC(=O)CCl	TGI	> 100 µM
O=C(CCl)N1CCCCC1C1(c2cc3ccccc3[nH]2)OCCO1 (stereo unspecified)	TGI	8.83 µM
CCCCCCNC(=O)c1cc(NCc2cc(OC)ccc2OC)ccc1O	TGI	45.7 µM
c1ccc(N/N=C2\CC(c3ccccc3)Oc3ccccc32)cc1 (stereo unspecified)	TGI	> 100 µM
COC1Cc2c(C)c(OC(C)=O)c3cccnc3c2O1 (stereo unspecified)	TGI	> 100 µM
CCc1cc(-c2nsc(=O)o2)c(S(=O)(=O)CC)s1	TGI	85.1 µM
COC(=O)CCc1ccc2c(c1)CCC2	TGI	> 100 µM
CCOC(=O)Cc1ccc(Nc2nc3cc(C(F)(F)F)ccc3nc2C(=O)OCC)cc1	TGI	> 100 µM
C#C[C@@]1(O)[C@@H](CO)O[C@@H](n2cc(Cl)c3c(N)ncnc32)[C@@H]1O	TGI	4 µM
COC(=O)c1cc(C)ccc1/C=C1\Cc2cc(C)c(C)cc2C1=O	TGI	> 100 µM
COc1cc2[nH]c(C(=O)c3cc(OC)c(OC)c(OC)c3)c(N)c2cc1C#CCO	TGI	> 100 µM
CCOC(=O)c1sc2nc(SC)nc(Nc3ccc4c(c3)OCCCO4)c2c1N	TGI	> 100 µM
CC1(C)SC2C(C(=O)O)N=C(Cc3ccccc3)N2C1C(=O)O (stereo unspecified)	TGI	> 100 µM
COc1ccc(-c2oc3c(CC(=O)O)cccc3c(=O)c2OC)cc1	TGI	> 100 µM
CS(=O)(=O)CCNCc1ccc(-c2ccc3ncnc(Nc4ccc(OCc5ccccc5)c(C(F)(F)F)c4)c3c2)o1	TGI	> 21 µM
COc1cc2c(c(OC)c1OC)-c1ccc([O-])c(=O)cc1[C@@H](NC(C)=O)CC2.COc1cc2c(c(OC)c1OC)-c1ccc([O-])c(=O)cc1[C@@H](NC(C)=O)CC2.[Cu+2]	TGI	> 100 µM
O=C(O)C(Cc1ccc(O)cn1)NC(=O)C(F)(F)F (stereo unspecified)	TGI	> 100 µM
Nc1ccccc1NC(=O)c1ccc(CSc2nc(N3CCOCC3)c3cccn3n2)cc1	TGI	41.4 µM
CCOC(=O)c1ccc2c(c1)nc1n2C(c2c(F)cccc2F)SC1 (stereo unspecified)	TGI	71.2 µM
Nc1nc(N)c2nc(CNc3ccc(C(=O)CC(CCC(=O)O)C(=O)O)cc3)cnc2n1 (stereo unspecified)	TGI	> 100 µM
